Each recorded value in this set is attributed to patent US20230212172A1.

System: C. parvum
Experiment: In vitro inhibition of C. parvum development in HCT-8 cells
Assay type: cell-based
Conditions: Cryptosporidium parvum; HCT-8 cells, Table 4; read-out: EC50 for inhibition of C. parvum development in HCT-8 cells
pEC50: −log10 of the molar value.
We use 5 as the dividing line for pEC50: on or above the line is met, below is not met.

{"smiles-data": "O=C(Cc1c(Cl)cccc1Cl)N1CCN(c2ccc3nncn3n2)CC1", "category": "not met"}
{"smiles-data": "Cc1nnc2ccc(N3CCN(C(=O)Cc4ccc(Cl)c(Cl)c4)CC3)nn12", "category": "not met"}
{"smiles-data": "O=C(Cc1ccc(Cl)cc1Cl)N1CCN(c2ccc3nncn3n2)CC1", "category": "not met"}
{"smiles-data": "O=C(Cc1ccc(-c2ccccc2)cc1)N1CCN(c2ccc3nncn3n2)CC1", "category": "not met"}
{"smiles-data": "Cc1ccc(CC(=O)N2CCN(c3ccc4nncn4n3)CC2)cc1F", "category": "met"}
{"smiles-data": "O=C(Cc1ccc(CO)cc1)N1CCN(c2ccc3nncn3n2)CC1", "category": "not met"}
{"smiles-data": "COc1cccc(CC(=O)N2CCN(c3ccc4nncn4n3)CC2)c1", "category": "not met"}
{"smiles-data": "O=C(Cc1ccc(Cl)c(C(F)(F)F)c1)N1CCN(c2ccc3nncn3n2)CC1", "category": "met"}
{"smiles-data": "O=C(Cc1ccc(Br)cc1)N1CCN(c2ccc3nncn3n2)CC1", "category": "met"}
{"smiles-data": "O=C(Cc1ccc([N+](=O)[O-])cc1)N1CCN(c2ccc3nncn3n2)CC1", "category": "met"}
{"smiles-data": "O=C(N1CCN(c2ccc3nncn3n2)CC1)C(F)(F)c1ccc(Cl)c(Cl)c1", "category": "met"}
{"smiles-data": "O=C(Cc1ccccc1)N1CCN(c2ccc3nncn3n2)CC1", "category": "not met"}
{"smiles-data": "C#Cc1ccc(CC(=O)N2CCN(c3ccc4nncn4n3)CC2)cc1", "category": "met"}
{"smiles-data": "O=C(Cc1cc(F)cc(F)c1)N1CCN(c2ccc3nncn3n2)CC1", "category": "met"}
{"smiles-data": "O=C(Cc1ccc(COn2nnc3ccccc32)cc1)N1CCN(c2ccc3nncn3n2)CC1", "category": "not met"}
{"smiles-data": "O=C(Cc1ccc(CN2CCOCC2)cc1)N1CCN(c2ccc3nncn3n2)CC1", "category": "not met"}
